- Test: chemical genetic growth profiling, strain panel (AID 1159580);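 further: tested at 20 µM; growth read once vehicle control cultures reached saturation at 30 °C; 1 = growth at the plate median or of vehicle wells; lower values mean less growth of the strain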
- Stated conditions: S. cerevisiae deletion strains, growth OD, locus YGR229C, strain SMI1, active compounds read low
Out of some 5,500 compounds screened, about 2,000 (36%) were called active. Inconclusive results (about 18%) are left out. The list shows a part of the results.
# reported normalized growth; entries follow

Previously resolved entries follow.
CC(=O)O[C@H]1CC[C@@]2(C)C(C[C@@H](OC(C)=O)[C@]3(C)C2CC[C@@]2(C)[C@H](c4ccoc4)OC(=O)[C@H]4O[C@]423)C1(C)C (stereo not given in full): 0.959 (inactive)
COc1cc(NS(C)(=O)=O)ccc1Nc1c2ccccc2nc2ccccc12: 0.955 (inactive)
Fc1ccc([C@@H]2CCNC[C@H]2COc2ccc3c(c2)OCO3)cc1: 1 (inactive)
O=S(=O)(c1ccc(Cl)cc1)c1cc(C(F)(F)F)cc(C(F)(F)F)c1: 0.98 (inactive)

Continue with the compound presented below.
Recorded normalized growth for CCCNC(=O)NS(=O)(=O)c1ccc(Cl)cc1 , please?
0.994 (inactive)

Hello, the source for this data is PubChem BioAssay AID1159580, in case you need it.
